Cited source: ChEMBL document CHEMBL5506008

Assay: Half life in male Sprague-Dawley rat at 10 mg/kg, po administered as single dose by LC-MS/MS analysis
Assay type: ADME, organism-based
Settings: in vivo
OBSERVABLE: half-life (min)
// return numeric value only (unit: min, not printed)

Problem: Please give the measured half-life for this molecule: COc1cc(C2NCCc3c2[nH]c2ccccc32)ccc1OCc1cc(C(F)(F)F)cc(C(F)(F)F)c1 (stereo unspecified)
Result: 342

====

Experiment: Oral bioavailability in male Sprague-Dawley rat at 10 mg/kg administered as single dose by LC-MS/MS analysis
Type: ADME, organism-based
Details: in vivo
OBSERVABLE: bioavailability (%)
// return numeric value only (unit: %, not printed)

Problem: Please give the measured bioavailability for this compound: COc1cc(C2NCCc3c2[nH]c2ccccc32)ccc1OCc1cc(C(F)(F)F)cc(C(F)(F)F)c1 (stereo unspecified)
Result: 30.6

====

Molecular target: Epidermal growth factor receptor (Homo sapiens, UniProt P00533)
Sequence (P00533 whole entry, the tested form may be a part): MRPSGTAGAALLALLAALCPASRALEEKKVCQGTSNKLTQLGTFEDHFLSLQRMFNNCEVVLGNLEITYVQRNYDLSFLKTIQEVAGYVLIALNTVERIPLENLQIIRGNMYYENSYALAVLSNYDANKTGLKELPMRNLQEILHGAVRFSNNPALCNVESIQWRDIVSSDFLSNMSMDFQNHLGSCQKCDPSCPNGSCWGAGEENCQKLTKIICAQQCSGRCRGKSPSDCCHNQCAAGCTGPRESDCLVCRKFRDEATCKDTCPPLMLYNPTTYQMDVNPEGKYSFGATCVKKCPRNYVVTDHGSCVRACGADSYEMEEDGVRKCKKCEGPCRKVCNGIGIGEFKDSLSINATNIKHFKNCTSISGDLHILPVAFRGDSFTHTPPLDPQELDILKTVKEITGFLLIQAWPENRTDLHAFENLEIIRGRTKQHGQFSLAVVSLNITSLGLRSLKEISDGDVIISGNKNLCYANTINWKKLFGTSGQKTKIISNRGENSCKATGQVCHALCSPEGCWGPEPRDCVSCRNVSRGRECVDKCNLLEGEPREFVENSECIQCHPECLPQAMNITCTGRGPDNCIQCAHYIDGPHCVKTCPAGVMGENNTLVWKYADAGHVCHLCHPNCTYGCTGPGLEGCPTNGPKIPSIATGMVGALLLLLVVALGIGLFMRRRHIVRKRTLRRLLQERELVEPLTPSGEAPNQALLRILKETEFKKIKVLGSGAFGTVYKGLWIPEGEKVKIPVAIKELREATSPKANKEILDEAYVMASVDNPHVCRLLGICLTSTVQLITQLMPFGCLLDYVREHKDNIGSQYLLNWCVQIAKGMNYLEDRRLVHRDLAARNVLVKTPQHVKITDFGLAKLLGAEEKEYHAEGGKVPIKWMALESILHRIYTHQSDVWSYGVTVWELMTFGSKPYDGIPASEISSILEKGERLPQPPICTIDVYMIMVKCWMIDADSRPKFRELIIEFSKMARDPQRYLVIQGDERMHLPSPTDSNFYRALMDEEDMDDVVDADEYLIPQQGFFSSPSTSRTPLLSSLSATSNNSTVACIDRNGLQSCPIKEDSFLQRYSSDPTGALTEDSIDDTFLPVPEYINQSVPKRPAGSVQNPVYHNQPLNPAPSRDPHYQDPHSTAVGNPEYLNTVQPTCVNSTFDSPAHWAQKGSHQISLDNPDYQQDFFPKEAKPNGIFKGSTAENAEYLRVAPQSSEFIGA
Test: Inhibition of wild type GST-tagged EGFR catalytic domain (unknown origin) expressed in insect cells using poly(Glu-Tyr) as substrate incubated for 6 mins by ELISA
Each entry below lists one item and its recorded pIC50 value.
Schema: pIC50 number; meaning minus log10 of the concentration expressed in molar units.

Examples with answers:
COC(=O)c1ccc(COc2ccc(C3NCCc4c3[nH]c3ccccc43)cc2OC)cc1 (stereo not given)
4.28
COc1cc(C2NCCc3c2[nH]c2ccccc32)ccc1OCc1ccc(C#N)cc1F (stereo not given)
4.09

Problem: Please give the measured pIC50 for this molecule: COc1cc(C2NCCc3c2[nH]c2ccccc32)ccc1OCc1ccc(B2OC(C)(C)C(C)(C)O2)cc1 (stereo not given)
Result: 4.07

Problem: Please give the measured pIC50 for this molecule: COc1cc(C2NCCc3c2[nH]c2ccccc32)ccc1OCc1ccc(OC(F)(F)F)c(Cl)c1 (stereo not given)
Result: 4.20

Problem: Please give the measured pIC50 for this molecule: O=C(Nc1ccc(C2NCCc3c2[nH]c2ccccc32)cc1)c1ccccc1 (stereo not given)
Result: 4.25

Problem: Please give the measured pIC50 for this molecule: O=C(Nc1ccc(C2NCCc3c2[nH]c2ccccc32)cc1)c1cccc(F)c1 (stereo not given)
Result: 4.02

Problem: Please give the measured pIC50 for this molecule: O=C(Oc1ccc(C2NCCc3c2[nH]c2ccccc32)cc1)c1ccccc1 (stereo not given)
Result: 4.29

Problem: Please give the measured pIC50 for this molecule: O=C(Nc1ccc(C2NCCc3c2[nH]c2ccccc32)cc1)c1cccc(C(F)(F)F)c1 (stereo not given)
Result: 4.13

Problem: Please give the measured pIC50 for this molecule: COc1cc(C2NCCc3c2[nH]c2ccccc32)ccc1OCc1ccc(F)cc1Br (stereo not given)
Result: 4.13

Problem: Please give the measured pIC50 for this molecule: COC(=O)c1ccc(COc2ccc(C3NCCc4c3[nH]c3ccccc43)cc2OC)c(F)c1 (stereo not given)
Result: 4.25
